- EXPERIMENT_NOTES: Solubility of Compound A in single adjuvant solvents at 25°C (supersaturated solution, sampled every 2 hours)
- Assay type: physicochemical
- APPLIED_CONDITIONS: single solvent, organic solvent or mixture, thermodynamic from solid, Ethanol, 4h
PROPERTY: solubility at 4 h (µg/mL)
API: value field is a number in µg/mL; no unit string.

GET /value?item= O=[N+]([O-])c1ccc(C(OP(=O)(N2CC2)N2CC2)C(F)(F)F)cc1Oc1ccc(-c2ccc(F)cc2)c(F)c1 (racemic) &field=solubility at 4 h returns 9430

###

- EXPERIMENT_NOTES: Solubility of Compound A in single adjuvant solvents at 25°C (supersaturated solution, sampled every 2 hours)
- Type: physicochemical
- APPLIED_CONDITIONS: single solvent, organic solvent or mixture, thermodynamic from solid, N,N-Dimethylacetamide (DMA), 0h
PROPERTY: solubility at 0 h (mg/mL)
Express it in mg/mL; write the number only.

Query O=[N+]([O-])c1ccc(C(OP(=O)(N2CC2)N2CC2)C(F)(F)F)cc1Oc1ccc(-c2ccc(F)cc2)c(F)c1 (racemic) yields solubility at 0 h of 248

###

- EXPERIMENT_NOTES: Solubility of Compound A in single adjuvant solvents at 25°C (supersaturated solution, sampled every 2 hours)
- Assay type: physicochemical
- APPLIED_CONDITIONS: single solvent, organic solvent or mixture, thermodynamic from solid, Polyethylene glycol 400 (PEG 400), 2h
PROPERTY: solubility at 2 h (mg/mL)
Express it in mg/mL; write the number only.

Entry under test: O=[N+]([O-])c1ccc(C(OP(=O)(N2CC2)N2CC2)C(F)(F)F)cc1Oc1ccc(-c2ccc(F)cc2)c(F)c1 (racemic) [Compound A] . Its solubility at 2 h was 11.2

###

- EXPERIMENT_NOTES: Solubility of Compound A in single adjuvant solvents at 25°C (supersaturated solution, sampled every 2 hours)
- Format: physicochemical
- APPLIED_CONDITIONS: N,N-dimethylacetamide (single solvent), organic solvent or mixture, thermodynamic from solid, in N,N-dimethylacetamide
PROPERTY: Solubility

// sample O=[N+]([O-])c1ccc(C(OP(=O)(N2CC2)N2CC2)C(F)(F)F)cc1Oc1ccc(-c2ccc(F)cc2)c(F)c1 (racemic) , its Solubility was > 200 mg/mL

###

- EXPERIMENT_NOTES: Solubility of Compound A in single adjuvant solvents at 25°C (supersaturated solution, sampled every 2 hours)
- Format: physicochemical
- APPLIED_CONDITIONS: single solvent, organic solvent or mixture, thermodynamic from solid, Polyoxyethylene (35) castor oil (ELP), 0h
PROPERTY: solubility at 0 h (mg/mL)
Give just the number in mg/mL; leave the unit off.

Quick note, solubility at 0 h for O=[N+]([O-])c1ccc(C(OP(=O)(N2CC2)N2CC2)C(F)(F)F)cc1Oc1ccc(-c2ccc(F)cc2)c(F)c1 (racemic) [Compound A] landed at 18.6

###

- EXPERIMENT_NOTES: Solubility of Compound A in single adjuvant solvents at 25°C (supersaturated solution, sampled every 2 hours)
- Type: physicochemical
- APPLIED_CONDITIONS: single solvent, organic solvent or mixture, thermodynamic from solid, Polyethylene glycol 400 (PEG 400), 4h
PROPERTY: solubility at 4 h
Lab note: write values as number then unit, every time.

solubility at 4 h reported for this compound O=[N+]([O-])c1ccc(C(OP(=O)(N2CC2)N2CC2)C(F)(F)F)cc1Oc1ccc(-c2ccc(F)cc2)c(F)c1 (racemic) [Compound A] : 15.3 mg/mL

###

- EXPERIMENT_NOTES: Solubility of Compound A in single adjuvant solvents at 25°C (supersaturated solution, sampled every 2 hours)
- Format: physicochemical
- APPLIED_CONDITIONS: polyoxyethylene (35) castor oil (single solvent), organic solvent or mixture, thermodynamic from solid, in polyoxyethylene (35) castor oil
PROPERTY: Solubility

For record O=[N+]([O-])c1ccc(C(OP(=O)(N2CC2)N2CC2)C(F)(F)F)cc1Oc1ccc(-c2ccc(F)cc2)c(F)c1 (racemic) [Compound A] the listed Solubility is ~20 mg/mL

###

- EXPERIMENT_NOTES: Solubility of Compound A in single adjuvant solvents at 25°C (supersaturated solution, sampled every 2 hours)
- Type: physicochemical
- APPLIED_CONDITIONS: single solvent, organic solvent or mixture, thermodynamic from solid, N,N-Dimethylacetamide (DMA), 6h
PROPERTY: solubility at 6 h (mg/mL)
Give just the number in mg/mL; leave the unit off.

Reported solubility at 6 h for O=[N+]([O-])c1ccc(C(OP(=O)(N2CC2)N2CC2)C(F)(F)F)cc1Oc1ccc(-c2ccc(F)cc2)c(F)c1 (racemic) was 251

###

- EXPERIMENT_NOTES: Solubility of Compound A in single adjuvant solvents at 25°C (supersaturated solution, sampled every 2 hours)
- Assay type: physicochemical
- APPLIED_CONDITIONS: single solvent, organic solvent or mixture, thermodynamic from solid, N,N-Dimethylacetamide (DMA), 4h
PROPERTY: solubility at 4 h (mg/mL)
Give the value in mg/mL but do not write mg/mL after it.

Form: molecule = O=[N+]([O-])c1ccc(C(OP(=O)(N2CC2)N2CC2)C(F)(F)F)cc1Oc1ccc(-c2ccc(F)cc2)c(F)c1 (racemic) ; solubility at 4 h = 251

###

- EXPERIMENT_NOTES: Solubility of Compound A in single adjuvant solvents at 25°C (supersaturated solution, sampled every 2 hours)
- Assay type: physicochemical
- APPLIED_CONDITIONS: single solvent, organic solvent or mixture, thermodynamic from solid, Polyoxyethylene (35) castor oil (ELP), 4h
PROPERTY: solubility at 4 h (mg/mL)
Record the value in mg/mL, omitting the unit from your answer.

For reference, reported solubility at 4 h for O=[N+]([O-])c1ccc(C(OP(=O)(N2CC2)N2CC2)C(F)(F)F)cc1Oc1ccc(-c2ccc(F)cc2)c(F)c1 (racemic) [Compound A] stands at 20.7

###

- EXPERIMENT_NOTES: Solubility of Compound A in single adjuvant solvents at 25°C (supersaturated solution, sampled every 2 hours)
- Assay type: physicochemical
- APPLIED_CONDITIONS: single solvent, organic solvent or mixture, thermodynamic from solid, Ethanol, 0h
PROPERTY: solubility at 0 h (µg/mL)
Entry rule: numbers only, all in µg/mL.

get_value(item= O=[N+]([O-])c1ccc(C(OP(=O)(N2CC2)N2CC2)C(F)(F)F)cc1Oc1ccc(-c2ccc(F)cc2)c(F)c1 (racemic) [Compound A] , readout=solubility at 0 h) returns 8950

###

- EXPERIMENT_NOTES: Solubility of Compound A in single adjuvant solvents at 25°C (supersaturated solution, sampled every 2 hours)
- Type: physicochemical
- APPLIED_CONDITIONS: single solvent, organic solvent or mixture, thermodynamic from solid, Polyethylene glycol 400 (PEG 400), 6h
PROPERTY: solubility at 6 h (mg/mL)
Answer format: numeric, mg/mL implied, no suffix.

Reported solubility at 6 h for O=[N+]([O-])c1ccc(C(OP(=O)(N2CC2)N2CC2)C(F)(F)F)cc1Oc1ccc(-c2ccc(F)cc2)c(F)c1 (racemic) was 16

###

- EXPERIMENT_NOTES: Solubility of Compound A in single adjuvant solvents at 25°C (supersaturated solution, sampled every 2 hours)
- Type: physicochemical
- APPLIED_CONDITIONS: single solvent, organic solvent or mixture, thermodynamic from solid, Polyoxyethylene (35) castor oil (ELP), 2h
PROPERTY: solubility at 2 h
Respond with the figure and its unit, in that order.

Entry O=[N+]([O-])c1ccc(C(OP(=O)(N2CC2)N2CC2)C(F)(F)F)cc1Oc1ccc(-c2ccc(F)cc2)c(F)c1 (racemic) , solubility at 2 h reported as 20.7 mg/mL

Cited source for all entries: patent EP4710919A1
